Values compiled from patent US9464077B2.

tested on: FGFR3-TACC3_v3 (N-FLAG) fusion polypeptide; assay: In vitro kinase activity inhibition (HTRF KinEASE-TK); format: biochemical, human; details: 100 nM, 100 μM ATP
In this section, each of the compounds is paired with its reported rate of inhibiting kinase activity v3.

// returns reported rate of inhibiting kinase activity v3 for input COc1cc(OC)c(F)c(COc2cnc(Nc3cnn(C[C@@H](O)CO)c3)nc2)c1F 96%

Item: COc1cc(OC)c(F)c(COc2cnc(Nc3ccc(N4CCN(C)CC4)cc3)nc2)c1F 97%

Item: COc1cc(OC)c(F)c(COc2cnc(Nc3ccc(N4CCC(NCCO)CC4)cc3)nc2)c1F 96%

Item: COc1cc(OC)c(F)c(COc2cnc(Nc3cc(CN4CCN(C)CC4)n(C)n3)nc2)c1F 91%
